These measurements were taken from the Immune Epitope Database (IEDB).

molecular target: HLA-B*07:02; assay: IEDB peptide-MHC binding, purified MHC/direct/fluorescence; filed as Kd, often an IC50 or EC50 that approximates it; bounds were set here for any values at or beyond the usual limits of such assays; details: source organism: Giardia lamblia ATCC 50803
pKd: −log10 of the molar value.
METRIC_NAME: pKd

# input What measured pKd goes with DYIYLPLLK ?
# output ≤ 4.70

---

target: HLA-B*15:42; test: IEDB peptide-MHC binding, purified MHC/competitive/fluorescence; filed as Kd, often an IC50 or EC50 that approximates it; bounds were set here for any values at or beyond the usual limits of such assays; conditions: source organism: Orthohantavirus sinnombreense
METRIC_NAME: Kd

# input What measured Kd goes with YTFTSLFSL ?
# output ≥ 5 µM

---

biological target: HLA-B*58:01; experiment: IEDB peptide-MHC binding, purified MHC/direct/fluorescence; filed as Kd, often an IC50 or EC50 that approximates it; bounds were set here for any values at or beyond the usual limits of such assays; conditions: source organism: Escherichia coli
METRIC_NAME: Kd

# input What measured Kd goes with TVANNPDDK ?
# output ≥ 20 µM

---

target: HLA-A*01:01; assay: IEDB peptide-MHC binding, purified MHC/competitive/radioactivity; filed as Kd, often an IC50 or EC50 that approximates it; bounds were set here for any values at or beyond the usual limits of such assays; settings: source organism: SARS coronavirus Tor2
METRIC_NAME: pKd
Give bare numbers, as −log10 of the molar value.

Known pKd results, listed for orientation:
[[record]]
sequence_chain = "FYFTNDVSFL"
measured_value = 5.70

[[record]]
sequence_chain = "RYNTRGNTY"
measured_value = 4.86


In the following, a different sequence is considered.
# input What measured pKd goes with LTNDNTSRY ?
# output 8.80

---

target: HLA-A*68:02; experiment: IEDB peptide-MHC binding, purified MHC/direct/fluorescence; filed as Kd, often an IC50 or EC50 that approximates it; bounds were set here for any values at or beyond the usual limits of such assays; conditions: source organism: Vibrio parahaemolyticus AQ3810
METRIC_NAME: Kd

# input What measured Kd goes with RLDKPLWLH ?
# output ≥ 20 µM

---

biological target: HLA-B*57:01; assay: IEDB peptide-MHC binding, purified MHC/competitive/radioactivity; filed as Kd, often an IC50 or EC50 that approximates it; bounds were set here for any values at or beyond the usual limits of such assays; conditions: source organism: Dengue virus 1 Singapore/S275/1990
METRIC_NAME: pKd
Numbers only, as −log10 of the molar value.

Provide the reported pKd of each entry below, same order.
1. KTSIGLLCVM
2. TTFSLHYAW

# output
[7.94, 8.85]

---

target: HLA-B*45:06; experiment: IEDB peptide-MHC binding, purified MHC/competitive/fluorescence; filed as Kd, often an IC50 or EC50 that approximates it; bounds were set here for any values at or beyond the usual limits of such assays; conditions: source organism: Orthohantavirus sinnombreense
METRIC_NAME: Kd

# input What measured Kd goes with YTFTSLFSL ?
# output ≥ 5 µM

---

target: HLA-A*68:02; test: IEDB peptide-MHC binding, purified MHC/direct/fluorescence; filed as Kd, often an IC50 or EC50 that approximates it; bounds were set here for any values at or beyond the usual limits of such assays; conditions: source organism: Rio Mamore hantavirus
pKd: −log10 of the molar value.
METRIC_NAME: pKd

# input What measured pKd goes with YRRKLTNPA ?
# output ≤ 4.70
